Assay System: T1, recombinant rat MASP1 active protease (amino acids 302-704, C-terminal His Tag) (rat, UniProt Q8CHN8 302-704)
T1 sequence: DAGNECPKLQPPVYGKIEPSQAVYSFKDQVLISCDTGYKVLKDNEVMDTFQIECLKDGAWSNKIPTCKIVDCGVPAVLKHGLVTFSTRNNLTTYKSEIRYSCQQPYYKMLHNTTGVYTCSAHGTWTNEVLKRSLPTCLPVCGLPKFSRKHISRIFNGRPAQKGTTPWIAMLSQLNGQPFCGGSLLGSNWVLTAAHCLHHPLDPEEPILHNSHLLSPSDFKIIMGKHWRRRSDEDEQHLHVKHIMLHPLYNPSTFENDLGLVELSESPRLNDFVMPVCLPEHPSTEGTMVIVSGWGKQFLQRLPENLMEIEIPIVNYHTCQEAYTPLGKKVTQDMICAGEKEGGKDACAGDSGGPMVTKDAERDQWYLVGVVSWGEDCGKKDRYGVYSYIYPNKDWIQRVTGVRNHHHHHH
Protocol Notes: cell-based or functional assay
Bridge positions count the residues as written; N and C are the ends. Square brackets hold non-standard residues; d marks the D form. Ends that are not written are not given here. tBuAla = CC(C)(C)C[C@H](N)C(=O)O; PEG4 = NCCOCCOCCOCCOCCC(=O)O; Pen = CC(C)(S)[C@H](N)C(=O)O; Sar = CNCC(=O)O
Observable: rat MASP1 IC50 (nM)
Express the result in nM but write the number alone.

For [Sar]ICSRS[tBuAla]PPI[Pen]IP[PEG4]-NH2 (disulfide 3-11; N-terminus assumed; SMILES CC[C@H](C)[C@H](NC(=O)CNC)C(=O)N[C@H]1CSSC(C)(C)[C@@H](C(=O)N[C@H](C(=O)N2CCC[C@H]2C(=O)NCCOCCOCCOCCOCCC(N)=O)[C@@H](C)CC)NC(=O)[C@H]([C@@H](C)CC)NC(=O)[C@@H]2CCCN2C(=O)[C@@H]2CCCN2C(=O)[C@H](CC(C)(C)C)NC(=O)[C@H](CO)NC(=O)[C@H](CCCNC(=N)N)NC(=O)[C@H](CO)NC1=O) [Example 174: ((N-Me)G)-IC+SRS-((tBu)A)-PPI-(Pen)+IP-(PEG3(16atoms))-NH2] , write its rat MASP1 IC50.
65.6
